The reported measurements were obtained from patent US11739098B2.

Listed next: entries and their corresponding IC50.
systemName: human TLR8 (Homo sapiens, UniProt Q9NR97)
Sequence (Q9NR97 27-1041): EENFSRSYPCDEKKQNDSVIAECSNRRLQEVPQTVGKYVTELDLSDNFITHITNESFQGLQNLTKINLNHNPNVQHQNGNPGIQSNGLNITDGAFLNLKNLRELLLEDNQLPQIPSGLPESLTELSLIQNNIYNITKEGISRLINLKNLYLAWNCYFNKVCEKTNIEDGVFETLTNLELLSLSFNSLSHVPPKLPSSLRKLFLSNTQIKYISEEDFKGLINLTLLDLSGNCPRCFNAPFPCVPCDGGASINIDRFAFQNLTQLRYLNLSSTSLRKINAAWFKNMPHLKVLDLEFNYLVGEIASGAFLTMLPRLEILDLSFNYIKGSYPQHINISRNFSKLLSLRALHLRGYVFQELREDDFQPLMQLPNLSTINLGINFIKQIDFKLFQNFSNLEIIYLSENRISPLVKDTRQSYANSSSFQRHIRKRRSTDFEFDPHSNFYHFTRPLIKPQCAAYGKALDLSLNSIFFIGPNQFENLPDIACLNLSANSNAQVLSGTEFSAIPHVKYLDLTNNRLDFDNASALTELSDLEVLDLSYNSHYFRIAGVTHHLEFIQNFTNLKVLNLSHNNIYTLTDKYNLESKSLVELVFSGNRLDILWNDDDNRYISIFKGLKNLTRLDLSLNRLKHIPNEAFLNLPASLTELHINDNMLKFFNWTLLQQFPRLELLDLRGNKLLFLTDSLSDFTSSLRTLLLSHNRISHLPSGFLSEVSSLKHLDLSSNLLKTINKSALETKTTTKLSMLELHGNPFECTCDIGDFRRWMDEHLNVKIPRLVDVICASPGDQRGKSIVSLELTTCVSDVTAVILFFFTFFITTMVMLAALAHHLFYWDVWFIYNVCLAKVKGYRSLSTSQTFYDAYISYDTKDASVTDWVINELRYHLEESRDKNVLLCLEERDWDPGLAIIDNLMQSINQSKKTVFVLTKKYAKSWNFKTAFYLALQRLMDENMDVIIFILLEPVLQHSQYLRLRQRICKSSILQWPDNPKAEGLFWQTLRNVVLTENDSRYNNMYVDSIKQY
experimentDescription: TLR8 inhibition reporter assay (HEK-Blue cells, SEAP reporter, R848 stimulation)
experimentalSetup: HEK-Blue cells overexpressing human TLR8, SEAP reporter, R848 15.9 μM

For Cc1cc(-c2[nH]c3ccc(C4CCN(C(=O)CCN(C)C(C)C)CC4)cc3c2C(C)C)cn2nnnc12 , what is its reported IC50?
< 100 nM

Now try Cc1c(-c2ncnc3[nH]ncc23)[nH]c2ccc(C3CCN(C4CCN(C(C)C)CC4)CC3)cc12 .
< 100 nM
